Target: T1, Claudin 18.2 (CLDN18.2), expressed on CHOS-CLDN 18.2 / HEK293-CLDN 18.2 / HCC827-CLDN 18.2 cells (human, UniProt P56856-2 1-261)
T1 construct: whole, on cells; The species is not repeated for the CHOS-CLDN 18.2 cells; also called claudin-18A2
Assay: FACS, CHOS-CLDN18.2 cells, 0.078 µg/ml

binder | FACS reading
QP199200 (antibody, human IgG1, V domains shown, Chimeric; also called 43C11; mouse-derived chimeric antibody QP199200) VH: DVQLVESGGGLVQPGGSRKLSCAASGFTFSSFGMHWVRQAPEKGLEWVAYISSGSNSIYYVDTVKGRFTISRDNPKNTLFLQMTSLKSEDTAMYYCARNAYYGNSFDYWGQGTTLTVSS VL: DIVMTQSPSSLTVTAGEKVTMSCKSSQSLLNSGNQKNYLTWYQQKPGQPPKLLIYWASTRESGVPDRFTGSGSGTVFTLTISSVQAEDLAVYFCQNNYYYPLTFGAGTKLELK | 19900
QP14501448 (antibody, human IgG1, kappa, V domains shown, Humanized from QP199200) VH: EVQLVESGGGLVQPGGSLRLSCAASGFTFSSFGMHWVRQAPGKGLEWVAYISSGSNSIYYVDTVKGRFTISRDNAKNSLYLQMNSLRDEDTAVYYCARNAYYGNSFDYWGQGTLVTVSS VL: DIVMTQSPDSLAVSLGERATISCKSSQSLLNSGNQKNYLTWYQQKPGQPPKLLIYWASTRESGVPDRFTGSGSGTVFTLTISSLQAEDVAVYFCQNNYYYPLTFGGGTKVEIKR | 14200
QP024025 (antibody, human IgG1, V domains shown, also called IMAB362; 175D10(IMAB362)) VH: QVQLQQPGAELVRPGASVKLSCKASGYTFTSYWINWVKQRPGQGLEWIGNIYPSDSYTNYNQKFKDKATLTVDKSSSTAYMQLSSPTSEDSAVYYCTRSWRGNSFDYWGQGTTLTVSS VL: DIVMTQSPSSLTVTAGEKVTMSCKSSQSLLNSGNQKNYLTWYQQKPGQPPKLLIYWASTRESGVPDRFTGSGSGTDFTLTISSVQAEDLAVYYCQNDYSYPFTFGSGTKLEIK | 18200
QP14501446 (antibody, human IgG1, kappa, V domains shown, Humanized from QP199200) VH: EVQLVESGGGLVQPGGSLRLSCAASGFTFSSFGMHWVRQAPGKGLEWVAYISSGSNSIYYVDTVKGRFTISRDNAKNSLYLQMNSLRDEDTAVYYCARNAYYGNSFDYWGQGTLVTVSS VL: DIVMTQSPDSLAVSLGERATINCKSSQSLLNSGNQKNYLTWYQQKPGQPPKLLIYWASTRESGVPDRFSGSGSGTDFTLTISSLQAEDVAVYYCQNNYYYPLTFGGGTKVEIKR | 13900
QP14491448 (antibody, human IgG1, kappa, V domains shown, Humanized from QP199200) VH: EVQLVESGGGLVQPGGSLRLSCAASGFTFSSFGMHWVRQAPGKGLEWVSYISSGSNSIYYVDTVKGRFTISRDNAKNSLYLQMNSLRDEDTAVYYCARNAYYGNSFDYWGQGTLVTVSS VL: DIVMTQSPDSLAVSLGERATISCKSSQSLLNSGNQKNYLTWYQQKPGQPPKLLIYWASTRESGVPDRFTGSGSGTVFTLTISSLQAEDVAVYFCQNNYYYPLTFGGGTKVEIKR | 19200
